Experiment: absolute recovery over mixed-bed multilayer solid-phase extraction; higher = better recovery
Details: wastewater effluent; enrichment method: SPE
Hi there, I'd appreciate the recorded absolute recovery for every entry that follows.
Reply with just the number (in %).

Asked: Need absolute recovery of CCC[NH2+]C(C)C(=O)Nc1ccccc1C (stereo not given) [Prilocain] , thanks.
Given back: 81.8

Asked: Need absolute recovery of COc1ccc(C(=CC(=O)N2CCOCC2)c2ccc(Cl)cc2)cc1OC [Dimethomorph] , thanks.
Given back: 81.4

Asked: Need absolute recovery of O=C1C(Cl)C(CCl)CN1c1cccc(C(F)(F)F)c1 (stereo not given) [Flurochloridon] , thanks.
Given back: 106

Asked: Need absolute recovery of C[N-]S(=O)(=O)C(F)(F)C(F)(F)C(F)(F)C(F)(F)C(F)(F)C(F)(F)C(F)(F)C(F)(F)F [N-MeFOSA] , thanks.
Given back: 61.7

Asked: Need absolute recovery of C[NH+]1C2CCC1CC(OC(=O)C(CO)c1ccccc1)C2 (stereo not given) [Atropine] , thanks.
Given back: 90.9

Asked: Need absolute recovery of Cc1nnc(-c2ccccc2)c(=O)[n-]1 [Metamitron-Desamino] , thanks.
Given back: 89.8

Asked: Need absolute recovery of O=c1[nH]cc(F)c(=O)[nH]1 [5-Fluorouracil] , thanks.
Given back: 7.4

Asked: Need absolute recovery of Cc1cc(C)nc(Nc2ccccc2)n1 [Pyrimethanil] , thanks.
Given back: 91.4

Asked: Need absolute recovery of [NH3+]C12CC3CC(CC(C3)C1)C2 [Amantadine] , thanks.
Given back: 86.2

Asked: Need absolute recovery of CN(C)C(=O)Nc1ccc(Cl)cc1 [Monuron] , thanks.
Given back: 94.3

---

Assay: absolute recovery over vacuum-assisted evaporative concentration; higher = better recovery
Conditions: wastewater influent; enrichment method: VEC
Hi there, I'd appreciate the recorded absolute recovery for every entry that follows.
Reply with just the number (in %).

Asked: Need absolute recovery of CC12C=CC(=O)C=C1CCC1C2C(=O)CC2(C)C1CCC2(O)C(=O)CO (centres undefined) , thanks.
Given back: 58.2

Asked: Need absolute recovery of CC(CN1c2ccccc2CCc2ccccc21)C[NH+](C)C (centres undefined) , thanks.
Given back: 104

Asked: Need absolute recovery of COc1cccc(C(=O)NN(C(=O)c2cc(C)cc(C)c2)C(C)(C)C)c1C , thanks.
Given back: 98.9

Asked: Need absolute recovery of CCS(=O)(=O)c1nc2ccccn2c1S(=O)(=O)[N-]C(=O)Nc1nc(OC)cc(OC)n1 , thanks.
Given back: 98.9

---

Hi there, I'd appreciate the recorded LC retention time for every entry that follows.
Test: LC retention time (Atlantis T3, 5-95% MeOH gradient, 0.1% formic acid); higher = more retained / less polar

Asked: Need LC retention time of Cc1ncc2n1-c1ccc(Cl)cc1C(c1ccccc1F)=NC2 , thanks.
Given back: 14.5 min

Asked: Need LC retention time of COc1cc(OC)nc(NC(=O)[N-]S(=O)(=O)c2ncccc2C(=O)N(C)C)n1 , thanks.
Given back: 16.9 min

Asked: Need LC retention time of CCOc1nc2cccc(C(=O)[O-])c2n1Cc1ccc(-c2ccccc2-c2nnn[n-]2)cc1 , thanks.
Given back: 18.7 min

Asked: Need LC retention time of CC[N+]1([O-])CCCC1CNC(=O)c1cc(S(=O)(=O)CC)c(N)cc1OC (centres undefined) [Amisulpride-N-Oxide] , thanks.
Given back: 11.2 min

Asked: Need LC retention time of COc1cc([N-]S(=O)(=O)c2ccc(N)cc2)nc(OC)n1 , thanks.
Given back: 14.9 min

Asked: Need LC retention time of N#Cc1nn(-c2c(Cl)cc(C(F)(F)F)cc2Cl)c(N)c1S(=O)C(F)(F)F (centres undefined) , thanks.
Given back: 20.4 min

Asked: Need LC retention time of Nc1nnc(-c2cccc(Cl)c2Cl)c(N)n1 , thanks.
Given back: 12.8 min

Asked: Need LC retention time of CCCCOCCOCCOCc1cc2c(cc1CCC)OCO2 [Piperonyl-butoxide] , thanks.
Given back: 22.7 min

Asked: Need LC retention time of CCc1cccc(C)c1N1C(=O)COCC1C (centres undefined) , thanks.
Given back: 18.1 min

---

Assay: LC retention time (Atlantis T3, 5-95% MeOH gradient, 0.1% formic acid); higher = more retained / less polar
Measured attribute: LC retention time (min)
Reply with just the number (in min).

Asked: Need LC retention time of O=C(NCC(O)CO)c1c(I)c(C(=O)NCC(O)CO)c(I)c(N(CCO)C(=O)CO)c1I (centres undefined) , thanks.
Given back: 7.88

Asked: Need LC retention time of CC(C(=O)[O-])c1cccc(C(=O)c2ccccc2)c1 (centres undefined) , thanks.
Given back: 18.8

Asked: Need LC retention time of Cn1ncc(N)c(Cl)c1=O , thanks.
Given back: 10.2

Asked: Need LC retention time of CC(=O)Nc1ccc(S(=O)(=O)[N-]c2cc(C)on2)cc1 , thanks.
Given back: 14.5

Asked: Need LC retention time of CC(=O)N(C)c1ccc(N)cc1 , thanks.
Given back: 7.84

Asked: Need LC retention time of CCOC(=O)Nc1cccc(OC(=O)Nc2ccccc2)c1 , thanks.
Given back: 18.6

Asked: Need LC retention time of CC(=NC#N)N(C)Cc1ccc(Cl)nc1 , thanks.
Given back: 14.3

Asked: Need LC retention time of CCCCOc1cc(C(=O)NCC[NH+](CC)CC)c2ccccc2n1 , thanks.
Given back: 16.2

Asked: Need LC retention time of COC(=O)c1sccc1S(=O)(=O)[N-]C(=O)Nc1nc(C)nc(OC)n1 , thanks.
Given back: 16.7

---

Test: absolute recovery over vacuum-assisted evaporative concentration; higher = better recovery
Conditions: wastewater influent; enrichment method: VEC
Measured attribute: absolute recovery (%)
Reply with just the number (in %).

Asked: Need absolute recovery of CCNc1nc(N)nc(Cl)n1 , thanks.
Given back: 103

Asked: Need absolute recovery of CCNc1nc(Cl)nc(NC(C)(C)C)n1 , thanks.
Given back: 91.9

Asked: Need absolute recovery of C[NH+]=CNc1ccc(C)cc1C , thanks.
Given back: 79.1

Asked: Need absolute recovery of Cc1cc(N(C2OC(C(=O)[O-])C(O)C(O)C2O)S(=O)(=O)c2ccc(N)cc2)no1 (centres undefined) [Sulfamethoxazole-N1-Glucuronide] , thanks.
Given back: 70.3

Asked: Need absolute recovery of [O-][n+]1nc(-n2ccnc2)nc2ccc(Cl)cc21 [Triazoxide] , thanks.
Given back: 89

Asked: Need absolute recovery of CN(C)c1nc(=O)n(C2CCCCC2)c(=O)n1C , thanks.
Given back: 92.6

Asked: Need absolute recovery of COC(=O)C(Cc1ccccc1)NC(=O)C([NH3+])CC(=O)[O-] (centres undefined) , thanks.
Given back: 36.3

Asked: Need absolute recovery of O=C([O-])C(c1ccccc1Cl)[NH+]1CCc2sccc2C1 (centres undefined) , thanks.
Given back: 102

Asked: Need absolute recovery of CCOCCN(C(=O)CCl)C(=C(C)C)c1ccccc1 , thanks.
Given back: 92.5

---

Hi there, I'd appreciate the recorded absolute recovery for every entry that follows.
Experiment: absolute recovery over vacuum-assisted evaporative concentration; higher = better recovery
Details: wastewater effluent; enrichment method: VEC
Reply with just the number (in %).

Asked: Need absolute recovery of COc1cc(OC)nc(NC(=O)[N-]S(=O)(=O)N(C)S(C)(=O)=O)n1 , thanks.
Given back: 112

Asked: Need absolute recovery of CCC(=O)OC(OP(=O)(CCCCc1ccccc1)CC(=O)N1CC(C2CCCCC2)CC1C(=O)[O-])C(C)C (stereo not given) , thanks.
Given back: 90.6

Asked: Need absolute recovery of CC1=C(C(=O)[O-])N2C(=O)C(NC(=O)C([NH3+])c3ccccc3)C2SC1 (stereo not given) , thanks.
Given back: 65.2

Asked: Need absolute recovery of Cc1ncc2n1-c1ccc(Cl)cc1C(c1ccccc1F)=NC2 , thanks.
Given back: 102

Asked: Need absolute recovery of COc1ccc2c(c1)C13CCCCC1C(C2)[NH+](C)CC3 (stereo not given) , thanks.
Given back: 102

---

Assay: absolute recovery over mixed-bed multilayer solid-phase extraction; higher = better recovery
Details: nanopure water; enrichment method: SPE
Hi there, I'd appreciate the recorded absolute recovery for every entry that follows.
Reply with just the number (in %).

Asked: Need absolute recovery of CCCCCCCCCCCC[N+](C)(C)C [Dodecyltrimethylammonium] , thanks.
Given back: 84.2

Asked: Need absolute recovery of O=S(=O)([O-])c1ccc2ccc(S(=O)(=O)[O-])cc2c1 [2-7-Naphthalenedisulfonic-acid] , thanks.
Given back: 93.9

Asked: Need absolute recovery of CN1C(=O)CN=C(c2ccccc2)c2cc(Cl)ccc21 [Diazepam] , thanks.
Given back: 97.6

Asked: Need absolute recovery of C[NH+](C)C(C)(C)CO [2-(Dimethylamino)-2-methyl-1-propanol] , thanks.
Given back: 45.5

Asked: Need absolute recovery of CC(=O)Nc1c(C)n(C)n(-c2ccccc2)c1=O [4-Acetamidoantipyrin (=N-Acetyl-4-Aminoantipyrin, 4-AAA)] , thanks.
Given back: 96

Asked: Need absolute recovery of O=C1NC(=O)C(c2ccccc2)(c2ccccc2)N1 [Phenytoin] , thanks.
Given back: 90.8

Asked: Need absolute recovery of CON=C(C(=O)[O-])c1ccccc1COc1ccccc1C [Kresoxim-methyl-acid] , thanks.
Given back: 85.5

Asked: Need absolute recovery of CC1CC2C3CCC4=CC(=O)C=CC4(C)C3(F)C(O)CC2(C)C1(O)C(=O)CO (centres undefined) [Dexamethason] , thanks.
Given back: 92.3

Asked: Need absolute recovery of CC12CCC3=C4CCC(=O)C=C4CCC3C1CCC2(O)CC#N (centres undefined) [Dienogest] , thanks.
Given back: 97.4
